test system: Plasmodium falciparum; test: GSK_TCMDC: Inhibition of Plasmodium falciparum Dd2 in whole red blood cells, using parasite LDH activity as an index of growth. Test compounds present at 2uM; assay type: functional
Give Inhibition for every item shown.
Provide the reading as a plain figure in %.

Return reported Inhibition. Input compound: CCc1nc2c(N)nc(N)nc2nc1-c1ccc(OC)cc1
0

Return reported Inhibition. Input compound: O=C(NCC1CCN(Cc2ccc3c(c2)OCCO3)C1)c1cc(-c2ccccc2F)cs1.O=C(O)C(F)(F)F (stereo not drawn)
0

Return reported Inhibition. Input compound: Cl.O=c1cc(NCCCNCc2ccc(Cl)c(Cl)c2)[nH]c2cc(F)cc(F)c12
94

Return reported Inhibition. Input compound: CC(CO)(CO)NCc1cc2c3ccccc3c(CNC(C)(CO)CO)cc2c2ccccc12.CS(=O)(=O)O
98

Return reported Inhibition. Input compound: CN(C)C(C)(C)CN(Cc1ccc(-c2ccc(C(F)(F)F)cc2)cc1)C(=O)Cn1c(CCc2cccc(F)c2F)nc(=O)c2ccccc21.O=C(O)C(O)C(O)C(=O)O
67

Return reported Inhibition. Input compound: Cl.c1ccc(-c2ccc3c(Nc4ccc5[nH]ccc5c4)ccnc3c2)nc1
78

Return reported Inhibition. Input compound: CCOc1cc2ncnc(Nc3cc(Cl)c(Cl)c(Cl)c3)c2cc1OCC.Cl
98

Return reported Inhibition. Input compound: Cc1ccc(O)cc1Nc1ccnc2cc(-c3ccccn3)ccc12.Cl [GW440139A]
98

Return reported Inhibition. Input compound: COc1cc(OC)cc(C(=O)N2CCOC(CCN3CCC(c4ccccc4)CC3)(c3ccc(Cl)c(Cl)c3)C2)c1 (stereo not drawn)
61

Return reported Inhibition. Input compound: COc1ccc(CC(=O)NC(CCN2CCC3(CC2)CN(S(C)(=O)=O)c2ccccc23)c2ccc(Cl)c(Cl)c2)cc1OC (stereo not drawn)
77

Return reported Inhibition. Input compound: CC(C)(C)[C@@H](Nc1ccc(C#N)c2ccccc12)C(=O)NC1(Cc2ccc(O)cc2)CCCC1
74

Return reported Inhibition. Input compound: Cc1cc(N2CCCC2)nc(Nc2ccc(NC(=O)C(C)(C)C)cc2)n1
15

Return reported Inhibition. Input compound: CCn1c(-c2nonc2N)nc2c(-c3cccc(NC(=O)Nc4ccc(C(F)(F)F)cc4)c3)ncc(OCCCN)c21.O=C(O)C(F)(F)F
63

Return reported Inhibition. Input compound: CCCSc1nc2c(c(=O)n1Cc1ccco1)C1(CCCCC1)Cc1ccccc1-2
95

Return reported Inhibition. Input compound: Clc1ccc(/N=C(/NCCCCCCCN/C(=N\c2ccc(Cl)cc2)Nc2ccc(Cl)cc2)Nc2ccc(Cl)cc2)cc1
99

Return reported Inhibition. Input compound: Cc1c(C(=O)Nc2cc(Sc3ccc(F)cc3)cc([N+](=O)[O-])c2)sc2ncn(Cc3ccccc3F)c(=O)c12
45

Return reported Inhibition. Input compound: CCOc1ccc(-c2cc3nc(C4CCNCC4)c(C(=O)Nc4ccc(C)cc4Cl)cn3n2)cc1.Cl
22

Return reported Inhibition. Input compound: O=C(O)/C=C\C(=O)O.O=c1c2sc(-c3ccc(Cl)cc3)cc2ncn1Cc1ccc(OCCN2CCCC2)c2ccccc12
81

Return reported Inhibition. Input compound: COc1ccc2nccc([C@@H](O)CN3CCC(NC(=O)/C=C/c4ccc(F)c5ccccc45)CC3)c2c1
75

Return reported Inhibition. Input compound: Cc1ccc(Nc2nc(C)cc(NC3CC3)n2)cc1
15

Return reported Inhibition. Input compound: O=C(Nc1ccc2c(c1)CCC2)c1cccc(N2CCN(c3ccncc3)CC2)c1.O=C(O)C(F)(F)F
22

Return reported Inhibition. Input compound: CCOc1cc(C)ccc1C1CCN(CCCCNC(=O)c2coc(-c3ccc(Cl)cc3)c2)CC1.Cl
30

Return reported Inhibition. Input compound: COc1cc(CN2CCC(CO)(Cc3cccc(C(F)(F)F)c3)CC2)c(Cl)cc1O
64

Return reported Inhibition. Input compound: CC(C)C[C@@H](C(=O)N[C@@H](CCCCNC(=O)OCc1ccccc1)C(=O)Nc1nccs1)[C@H](C)N(O)C=O
98

Return reported Inhibition. Input compound: CCOc1cc(Cc2cnc(N)nc2N)cc(OCC)c1O
0

Return reported Inhibition. Input compound: Nc1nc(N)c2c(Oc3ccc(Cl)c(Cl)c3)cccc2n1
22

Return reported Inhibition. Input compound: CC(=O)c1ccc(NC(=O)NNC(=O)c2ccc(CCN3CCC(c4nc(COCC(F)(F)F)c(-c5ccc(F)cc5)o4)CC3)cc2)cc1
27

Return reported Inhibition. Input compound: CN(Cc1ccccc1)C(=O)c1nn(CCCN2CCC(N3CCCC3)CC2)cc1-c1ccc(Cl)c(Cl)c1
66
